Cited source: patent US20210207064A1

# System: human skin
# Assay Text: Skin irritation test of active ingredient (patch method, CTFA guidelines)
# Assay type: in vivo
# Conditions Used: content 1.0 wt %; 20 people, 24 h patch; (±) slightly reddish
Quantity Measured: Test result (number of subject) (±)

O=C(O)c1ccc(N2CCN(c3ccc(C(=O)O)o3)CCN(c3ccc(C(=O)O)o3)CCN(c3ccc(C(=O)O)o3)CC2)o1; 2
O=C(O)CN1CCN(CC(=O)O)CCN(CC(=O)O)CCN(CC(=O)O)CC1; 1
O=C(O)c1ccc(N2CCN(c3ccc(C(=O)O)cc3)CCN(c3ccc(C(=O)O)cc3)CCN(c3ccc(C(=O)O)cc3)CC2)cc1; 1
NCCNCCNCCN [Trientine, Triethylenetetramine, reference compound]; 3
O=C(O)c1ccc(N(CCN(CCN(c2ccc(C(=O)O)o2)c2ccc(C(=O)O)o2)c2ccc(C(=O)O)o2)CCN(c2ccc(C(=O)O)o2)c2ccc(C(=O)O)o2)o1; 1

---

# Tested on: human skin
# Assay Text: Skin irritation test of active ingredient (patch method, CTFA guidelines)
# Type: in vivo
# Conditions Used: content 0.5 wt %; 20 people, 24 h patch; (±) slightly reddish
Quantity Measured: Test result (number of subject) (±)

O=C(O)c1cncc(N2CCCN(c3cncc(C(=O)O)c3)CCN(c3cncc(C(=O)O)c3)CCCN(c3cncc(C(=O)O)c3)CC2)c1; 0
NCCNCCNCCN [Trientine, Triethylenetetramine, reference compound]; 1
O=C(O)c1ccc(N2CCN(c3ccc(C(=O)O)o3)CCN(c3ccc(C(=O)O)o3)CCN(c3ccc(C(=O)O)o3)CC2)o1; 0
O=C(O)c1ccc(N(CCN(CCN(c2ccc(C(=O)O)o2)c2ccc(C(=O)O)o2)c2ccc(C(=O)O)o2)CCN(c2ccc(C(=O)O)o2)c2ccc(C(=O)O)o2)o1; 0
O=C(O)c1ccc(N2CCCN(c3ccc(C(=O)O)o3)CCN(c3ccc(C(=O)O)o3)CCCN(c3ccc(C(=O)O)o3)CC2)o1; 0
O=C(O)c1cncc(N2CCN(c3cncc(C(=O)O)c3)CCN(c3cncc(C(=O)O)c3)CCN(c3cncc(C(=O)O)c3)CC2)c1; 0

---

# Assay Text: Heavy metal removal ability test in contaminated soil (ICP-MS), arsenic
# Conditions Used: content 1.0% aqueous solution; contaminated soil
Quantity Measured: Arsenic (As) Adsorption amount (ppm)

O=C(O)c1ccc(N(CCN(CCN(c2ccc(C(=O)O)cc2)c2ccc(C(=O)O)cc2)c2ccc(C(=O)O)cc2)CCN(c2ccc(C(=O)O)cc2)c2ccc(C(=O)O)cc2)cc1; 49
O=C(O)CN(CCN(CCN(CC(=O)O)CC(=O)O)CC(=O)O)CCN(CC(=O)O)CC(=O)O; 50
C1CNCCNCCNCCN1; 49

---

# Assay Text: Heavy metal removal ability test in contaminated soil (ICP-MS), arsenic
# Conditions Used: content 2.0% aqueous solution; contaminated soil
Quantity Measured: Arsenic (As) Adsorption amount

O=C(O)CN1CCCN(CC(=O)O)CCN(CC(=O)O)CCCN(CC(=O)O)CC1; 48 ppm
O=C(O)CN1CCN(CC(=O)O)CCN(CC(=O)O)CCN(CC(=O)O)CC1; 53 ppm
C1CNCCNCCNCCN1; 51 ppm
O=C(O)c1ccc(N(CCN(CCN(c2ccc(C(=O)O)cc2)c2ccc(C(=O)O)cc2)c2ccc(C(=O)O)cc2)CCN(c2ccc(C(=O)O)cc2)c2ccc(C(=O)O)cc2)cc1; 53 ppm
O=C(O)c1ccc(N2CCCN(c3ccc(C(=O)O)o3)CCN(c3ccc(C(=O)O)o3)CCCN(c3ccc(C(=O)O)o3)CC2)o1; 46 ppm

---

A collection of compounds and their measured Cadmium (Cd) Adsorption rate
# Assay Text: Heavy metal removal ability test in contaminated soil (ICP-MS), cadmium
# Conditions Used: content 0.5%; relative to EDTA control
# Protocol: (1) Preparation of Soil Contaminated with Heavy Metal After collecting and pulverizing uncontaminated soil, fine particles obtained by using a mesh were mixed with the aqueous heavy metal solution to prepare soil samples contaminated with heavy metals. […] The prepared sample solution was analyzed for the heavy metal component using an Inductively Coupled Plasma Mass Spectrometer (ICP-MS) (Xseries™ 2, Thermo Fisher Scientific, UK). […]
Quantity Measured: Cadmium (Cd) Adsorption rate (%)

O=C(O)c1cncc(N2CCCN(c3cncc(C(=O)O)c3)CCN(c3cncc(C(=O)O)c3)CCCN(c3cncc(C(=O)O)c3)CC2)c1; 144
O=C(O)c1ccc(N2CCCN(c3ccc(C(=O)O)o3)CCN(c3ccc(C(=O)O)o3)CCCN(c3ccc(C(=O)O)o3)CC2)o1; 149
NCCNCCNCCN [Trientine, Triethylenetetramine, reference compound]; 166
O=C(O)c1ccc(N2CCN(c3ccc(C(=O)O)cc3)CCN(c3ccc(C(=O)O)cc3)CCN(c3ccc(C(=O)O)cc3)CC2)cc1; 149
C1CNCCNCCNCCN1; 168
O=C(O)c1ccc(N(CCN(CCN(c2ccc(C(=O)O)cc2)c2ccc(C(=O)O)cc2)c2ccc(C(=O)O)cc2)CCN(c2ccc(C(=O)O)cc2)c2ccc(C(=O)O)cc2)cc1; 183
O=C(O)CN1CCCN(CC(=O)O)CCN(CC(=O)O)CCCN(CC(=O)O)CC1; 149
O=C(O)CN(CCN(CCN(CC(=O)O)CC(=O)O)CC(=O)O)CCN(CC(=O)O)CC(=O)O; 180
O=C(O)c1cncc(N2CCN(c3cncc(C(=O)O)c3)CCN(c3cncc(C(=O)O)c3)CCN(c3cncc(C(=O)O)c3)CC2)c1; 151
O=C(O)c1ccc(N2CCN(c3ccc(C(=O)O)o3)CCN(c3ccc(C(=O)O)o3)CCN(c3ccc(C(=O)O)o3)CC2)o1; 149

---

# Assay Text: Heavy metal removal ability test in contaminated soil (ICP-MS), arsenic
# Conditions Used: content 1.0%; relative to EDTA control
Quantity Measured: Arsenic (As) Adsorption rate

C1CNCCNCCNCCN1 [Cyclen, 1,4,7,10-tetraazacyclododecane]; 196%
O=C(O)CN(CCN(CCN(CC(=O)O)CC(=O)O)CC(=O)O)CCN(CC(=O)O)CC(=O)O [Embodiment 1]; 200%
O=C(O)c1ccc(N(CCN(CCN(c2ccc(C(=O)O)cc2)c2ccc(C(=O)O)cc2)c2ccc(C(=O)O)cc2)CCN(c2ccc(C(=O)O)cc2)c2ccc(C(=O)O)cc2)cc1 [Embodiment 2]; 196%
